Test system: Pseudomonas aeruginosa
assay.name: Antimicrobial activity against Pseudomonas aeruginosa MTCC 741 by broth dilution method
Assay type: functional
Values of MIC strictly less than 80 µg/mL map to Yes, and values of at least 80 µg/mL map to No.

| compound | measured.target | assigned.class |
| --- | --- | --- |
| O=c1oc2ccc(Cl)cc2n1CCCN1CCN(c2ccccn2)CC1 | Pseudomonas aeruginosa | Yes |
| CC1CN(c2nc3ccccc3o2)CCN1 (stereo unspecified) | Pseudomonas aeruginosa | No |
| c1ccc(CN2CCN(c3nc4ccccc4o3)CC2)cc1 | Pseudomonas aeruginosa | Yes |
| c1ccc(N2CCN(c3nc4ccccc4o3)CC2)cc1 | Pseudomonas aeruginosa | Yes |
| CN1CCN(c2nc3ccccc3o2)CC1 | Pseudomonas aeruginosa | No |
| c1ccc2oc(N3CCCNCC3)nc2c1 | Pseudomonas aeruginosa | Yes |
| OCCN1CCN(c2nc3ccccc3o2)CC1 | Pseudomonas aeruginosa | Yes |
| O=c1oc2ccc(Cl)cc2n1Cc1ccccc1 | Pseudomonas aeruginosa | No |
| C=CCCn1c(=O)oc2ccc(Cl)cc21 | Pseudomonas aeruginosa | No |
| Clc1cccc(N2CCN(c3nc4ccccc4o3)CC2)c1 | Pseudomonas aeruginosa | No |
| CC(C)=CCn1c(=O)oc2ccc(Cl)cc21 | Pseudomonas aeruginosa | Yes |
| O=c1oc2ccc(Cl)cc2n1CCCN1CCN(c2ccccc2)CC1 | Pseudomonas aeruginosa | No |
| c1ccc(N2CCN(c3nc4ccccc4o3)CC2)nc1 | Pseudomonas aeruginosa | Yes |
| O=c1oc2ccc(Cl)cc2n1CCCN1CCN(Cc2ccccc2)CC1 | Pseudomonas aeruginosa | Yes |
| C=CCn1c(=O)oc2ccc(Cl)cc21 | Pseudomonas aeruginosa | Yes |
| O=c1oc2ccc(Cl)cc2n1CCCCl | Pseudomonas aeruginosa | No |
| O=c1oc2ccc(Cl)cc2n1CCCN1CCOCC1 | Pseudomonas aeruginosa | Yes |
| c1ccc2oc(N3CCCCC3)nc2c1 | Pseudomonas aeruginosa | No |
| c1ccc2oc(N3CCOCC3)nc2c1 | Pseudomonas aeruginosa | No |
| c1cnc(N2CCN(c3nc4ccccc4o3)CC2)nc1 | Pseudomonas aeruginosa | Yes |
| C#CCn1c(=O)oc2ccc(Cl)cc21 | Pseudomonas aeruginosa | Yes |
| CN[C@@H]1[C@H](O[C@H]2[C@H](O[C@H]3[C@H](O)[C@@H](O)[C@H](N=C(N)N)[C@@H](O)[C@@H]3N=C(N)N)O[C@@H](C)[C@]2(O)C=O)O[C@@H](CO)[C@H](O)[C@H]1O [STREPTOMYCIN] | Pseudomonas aeruginosa | Yes |
| CCN1CCN(c2nc3ccccc3o2)CC1 | Pseudomonas aeruginosa | No |
| O=c1oc2ccc(Cl)cc2n1CCCN1CCN(c2cccc(Cl)c2)CC1 | Pseudomonas aeruginosa | No |
| CC1(C)S[C@@H]2[C@H](NC(=O)Cc3ccccc3)C(=O)N2[C@H]1C(=O)O [PENICILLIN G] | Pseudomonas aeruginosa | Yes |
| O=c1oc2ccc(Cl)cc2n1CCCN1CCN(c2ncccn2)CC1 | Pseudomonas aeruginosa | No |

---

Test system: Rhizopus arrhizus
assay.name: Antimicrobial activity against Rhizopus oryzae MTCC 262 at 150 ug after 48 hr by agar well diffusion method
Assay type: functional
test.context: MTCC 262, 48 h, read-out: IZ
Entry flag: y if zone of inhibition at 150 µg/disc reaches 10 mm; n if it does not.

| smi | measured.target | assigned.class |
| --- | --- | --- |
| c1ccc2oc(N3CCCCC3)nc2c1 | Rhizopus arrhizus | y |
| c1ccc(CN2CCN(c3nc4ccccc4o3)CC2)cc1 | Rhizopus arrhizus | n |
| C#CCn1c(=O)oc2ccc(Cl)cc21 | Rhizopus arrhizus | y |
| O=c1oc2ccc(Cl)cc2n1CCCCl | Rhizopus arrhizus | y |

---

System: Escherichia coli
assay.name: Antimicrobial activity against Escherichia coli MTCC 443 by broth dilution method
Assay type: functional
The reader will find reported MIC values listed item by item below.

| compound | MIC |
| --- | --- |
| c1ccc(N2CCN(c3nc4ccccc4o3)CC2)nc1 | 150 µg/mL |
| c1ccc2oc(N3CCCCC3)nc2c1 | 150 µg/mL |
| CC(C)=CCn1c(=O)oc2ccc(Cl)cc21 | 150 µg/mL |
| CN1CCN(c2nc3ccccc3o2)CC1 | 150 µg/mL |
| O=c1oc2ccc(Cl)cc2n1Cc1ccccc1 | 150 µg/mL |
| C#CCn1c(=O)oc2ccc(Cl)cc21 | 37.5 µg/mL |
| OCCN1CCN(c2nc3ccccc3o2)CC1 | 150 µg/mL |
| c1cnc(N2CCN(c3nc4ccccc4o3)CC2)nc1 | 150 µg/mL |
| C=CCCn1c(=O)oc2ccc(Cl)cc21 | 150 µg/mL |
| C=CCn1c(=O)oc2ccc(Cl)cc21 | 150 µg/mL |
| O=c1oc2ccc(Cl)cc2n1CCCN1CCN(c2cccc(Cl)c2)CC1 | 150 µg/mL |
| O=c1oc2ccc(Cl)cc2n1CCCCl | 150 µg/mL |
| CC1(C)S[C@@H]2[C@H](NC(=O)Cc3ccccc3)C(=O)N2[C@H]1C(=O)O | 12.5 µg/mL |
| c1ccc2oc(N3CCOCC3)nc2c1 | 150 µg/mL |
| O=c1oc2ccc(Cl)cc2n1CCCN1CCN(c2ccccn2)CC1 | 150 µg/mL |
| CCN1CCN(c2nc3ccccc3o2)CC1 | 150 µg/mL |
| O=c1oc2ccc(Cl)cc2n1CCCN1CCN(c2ncccn2)CC1 | 150 µg/mL |
| CC1CN(c2nc3ccccc3o2)CCN1 (stereo not given) | 75 µg/mL |
| Clc1cccc(N2CCN(c3nc4ccccc4o3)CC2)c1 | 150 µg/mL |
| O=c1oc2ccc(Cl)cc2n1CCCN1CCOCC1 | 37.5 µg/mL |
